Measured values drawn from ChEMBL document CHEMBL1153912 for this set.

system: HFL1; assay: Induction of glycosaminoglycan synthesis priming in human HFL1 cells assessed as ratio of fractions containing free glycosaminoglycan chains in drug to untreated control; assay type: cell-based; also: test concentration or dose not given here
parameterMeasured: Ratio

[1] CC(=O)Oc1cccc2c(O[C@@H]3OC[C@@H](OC(C)=O)[C@H](OC(C)=O)[C@H]3OC(C)=O)cccc12
[2] CC(=O)Oc1ccc(O[C@@H]2OC[C@@H](OC(C)=O)[C@H](OC(C)=O)[C@H]2OC(C)=O)c2ccccc12
[3] CC(=O)Oc1cc(O[C@@H]2OC[C@@H](OC(C)=O)[C@H](OC(C)=O)[C@H]2OC(C)=O)cc2ccccc12
[4] CC(=O)O[C@@H]1[C@@H](OC(C)=O)[C@H](Oc2ccc3cc(O[C@@H]4OC[C@@H](OC(C)=O)[C@H](OC(C)=O)[C@H]4OC(C)=O)ccc3c2)OC[C@H]1OC(C)=O
[5] CC(=O)Oc1ccc2c(O[C@@H]3OC[C@@H](OC(C)=O)[C@H](OC(C)=O)[C@H]3OC(C)=O)cccc2c1
Query block: Sort the entries above by Ratio, largest first. Labels, requested order.
Result block: 4, 2, 1, 5, 3

----------
Measured GI50 at 96 h, listed per entry for reference.
experiment: Antiproliferative activity against human HFL1 cells after 96 hrs by crystal violet assay; assay type: cell-based; conditions: read-out: ED50
Field: numeric (µM). Do not append units.

compound	GI50 at 96 h, µM
CC(=O)Oc1cc(O[C@@H]2OC[C@@H](OC(C)=O)[C@H](OC(C)=O)[C@H]2OC(C)=O)c2ccccc2c1	20
CC(=O)O[C@@H]1[C@@H](OC(C)=O)[C@H](Oc2cc(O[C@@H]3OC[C@@H](OC(C)=O)[C@H](OC(C)=O)[C@H]3OC(C)=O)c3ccccc3c2)OC[C@H]1OC(C)=O	20
CC(=O)O[C@@H]1[C@@H](OC(C)=O)[C@H](Oc2cccc3c(O[C@@H]4OC[C@@H](OC(C)=O)[C@H](OC(C)=O)[C@H]4OC(C)=O)cccc23)OC[C@H]1OC(C)=O	10

Here's the next entry for you.
Query block: Looking for the measured GI50 at 96 h of CC(=O)O[C@@H]1[C@@H](OC(C)=O)[C@H](Oc2cccc3cccc(O[C@@H]4OC[C@@H](OC(C)=O)[C@H](OC(C)=O)[C@H]4OC(C)=O)c23)OC[C@H]1OC(C)=O , can you help?
Result block: 20

----------
test: Antiproliferative activity against human HFL1 cells after 96 hrs by crystal violet assay; type: cell-based; details: read-out: ED50
parameterMeasured: GI50 at 96 h (µM)
Field: numeric (µM). Do not append units.

compound	GI50 at 96 h, µM
CC(=O)Oc1ccc2ccccc2c1O[C@@H]1OC[C@@H](OC(C)=O)[C@H](OC(C)=O)[C@H]1OC(C)=O	65
CC(=O)Oc1ccc2ccc(O[C@@H]3OC[C@@H](OC(C)=O)[C@H](OC(C)=O)[C@H]3OC(C)=O)cc2c1	85
CC(=O)Oc1ccc2c(O[C@@H]3OC[C@@H](OC(C)=O)[C@H](OC(C)=O)[C@H]3OC(C)=O)cccc2c1	80

Here's the next entry for you.
Query block: Looking for the measured GI50 at 96 h of CC(=O)Oc1ccc(O[C@@H]2OC[C@@H](OC(C)=O)[C@H](OC(C)=O)[C@H]2OC(C)=O)c2ccccc12 , can you help?
Result block: 80
